Listing: pEC50 of selected compounds
assay: Activation of human HIF1alpha expressed in human U2OS cells assessed as increase in VEGF expression by RT-PCR analysis
Give only the number. pEC50 is defined as minus log10 of concentration in molar units.

Known results for compounds:
>>> print(df.to_string())
                           molecular_string  measured_result
0  c1ccc(CNc2nc(-c3ccccn3)nnc2-c2ccccc2)cc1             5.35
1  c1ccc(-c2nnc(-c3ccccn3)nc2NCCCN2CCOCC2)cc1             5.09
2  c1ccc(CCNc2nc(-c3ccccn3)nnc2-c2ccccc2)cc1             5.06
3  c1ccc(-c2nnc(-c3ccccn3)nc2NCc2cccnc2)cc1             5.36
4         C=CCNc1nc(-c2ccccn2)nnc1-c1ccccc1             5.21

Ask | I am curious: what pEC50 value has been reported for "COc1cccc(CNc2nc(-c3ccccn3)nnc2-c2ccccc2)c1" ?
Reply | 5.41

Ask | I am curious: what pEC50 value has been reported for "Clc1cccc(CNc2nc(-c3ccccn3)nnc2-c2ccccc2)c1" ?
Reply | 5.56

Ask | I am curious: what pEC50 value has been reported for "c1ccc(-c2nnc(-c3ccccn3)nc2NCC2CCCCC2)cc1" ?
Reply | 5.46

----------
target: Hypoxia-inducible factor 1-alpha (Homo sapiens, UniProt Q16665); assay: Activation of human HIF1alpha expressed in DFX-induced human U2OS cells incubated for 30 mins prior to DFX-induction measured after overnight incubation by luciferase reporter gene assay
Sequence (Q16665 whole entry): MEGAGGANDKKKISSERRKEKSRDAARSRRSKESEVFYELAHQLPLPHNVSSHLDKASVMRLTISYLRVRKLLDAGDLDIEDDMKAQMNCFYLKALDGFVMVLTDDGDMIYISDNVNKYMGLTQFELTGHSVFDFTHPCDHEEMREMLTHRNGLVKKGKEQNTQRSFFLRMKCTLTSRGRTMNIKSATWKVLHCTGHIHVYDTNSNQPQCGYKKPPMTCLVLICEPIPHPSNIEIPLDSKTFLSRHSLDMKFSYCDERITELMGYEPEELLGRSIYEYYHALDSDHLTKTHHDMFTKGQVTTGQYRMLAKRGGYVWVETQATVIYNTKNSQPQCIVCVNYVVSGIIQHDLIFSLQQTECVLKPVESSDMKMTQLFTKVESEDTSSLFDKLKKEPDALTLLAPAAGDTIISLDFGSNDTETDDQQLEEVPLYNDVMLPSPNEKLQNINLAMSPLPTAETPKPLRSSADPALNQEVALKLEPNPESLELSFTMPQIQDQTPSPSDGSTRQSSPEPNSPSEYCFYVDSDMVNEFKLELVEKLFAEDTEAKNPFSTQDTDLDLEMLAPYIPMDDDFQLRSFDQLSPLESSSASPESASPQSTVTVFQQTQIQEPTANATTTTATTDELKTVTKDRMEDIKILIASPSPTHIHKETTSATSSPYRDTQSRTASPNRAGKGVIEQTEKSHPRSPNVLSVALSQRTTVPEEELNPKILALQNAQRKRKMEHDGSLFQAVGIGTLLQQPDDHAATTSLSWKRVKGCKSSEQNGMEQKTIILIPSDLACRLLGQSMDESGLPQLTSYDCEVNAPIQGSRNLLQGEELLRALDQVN
Listing: pEC50 of selected compounds
Give only the number. pEC50 is defined as minus log10 of concentration in molar units.

Known results for compounds:
                                   compound  endpoint_name  measured_result
0  CN(C)c1nc(-c2ccccn2)nnc1-c1ccccc1 [MLS000541553]          pEC50             5.13
1  O=C(NCCCn1ccnc1)c1cc(-c2ccccc2)on1 [MLS000708948]          pEC50             5.06

Kindly review the next compound as well.
Ask | I am curious: what pEC50 value has been reported for "c1ccc(-c2nnc(-c3ccccn3)nc2NCC2CC2)cc1" ?
Reply | 4.90

----------
Listing: EC50 of selected molecules
test: Activation of GFP-tagged HIF1alpha expressed in human U2OS cells assessed as HIF1alpha nuclear translocation by high content imaging assay
State the answer as a number, implicitly in µM.

Known results for molecules:
>>> print(df.to_string())
                           molecular_string  endpoint_name  measured_result
0  c1ccc(CCNc2nc(-c3ccccn3)nnc2-c2ccccc2)cc1           EC50             9.82
1  c1ccc(-c2ccc(CNc3nc(-c4ccccn4)nnc3-c3ccccc3)cc2)cc1           EC50              1.4
2  Cc1cccc(Nc2nc(-c3ccccn3)nnc2-c2ccccc2)n1           EC50             5.41

Kindly review the next molecule as well.
Ask | I am curious: what EC50 value has been reported for "O=C(NCC1CC1)c1cc(-c2ccccc2)on1" ?
Reply | 16.6

----------
assay: Activation of human HIF1alpha expressed in human U2OS cells assessed as increase in VEGF expression by RT-PCR analysis
Endpoint Name: EC50 (µM)
State the answer as a number, implicitly in µM.

>>> df
                           molecular_string  endpoint_name  scale_unit  measured_result
0  C[C@@H](Nc1nc(-c2ccccn2)nnc1-c1ccccc1)C1CCCCC1           EC50          µM             1.88
1  c1ccc(-c2ccc(CNc3nc(-c4ccccn4)nnc3-c3ccccc3)cc2)cc1           EC50          µM             1.63

Kindly review the next compound as well.
Ask | I am curious: what EC50 value has been reported for "O=C(NCCCCO)c1cc(-c2ccccc2)on1" ?
Reply | 7.57
